# assay system: autotaxin (Homo sapiens, UniProt Q13822)
# Construct: purchased Cayman 10803
# assay remarks: Autotaxin inhibitor screening assay (choline release from LPC)
# Type: biochemical
# measurement setup: inhibition of autotaxin enzyme activity at 1 μM compound; 100 μM 14:0 LPC; read-out: Inhibition
assay readout: inhibition at 1 µM

>>> data_value("CN(C(=O)OCc1cc(Cl)cc(Cl)c1)C1CCc2ccc(C3=CCN(CC(=O)N4CC(O)C4)CC3)cc21 (stereo not shown)")
"50 to 80%"
>>> data_value("CN(C(=O)OCc1cc(Cl)cc(Cl)c1)C1CCc2ccc(C3=CCN(C(=O)CS(C)(=O)=O)CC3)cc21 (stereo not shown)")
"> 80%"
>>> data_value("CCOC(=O)N1CCN(C(=O)CN2CC=C(c3ccc4c(c3)C(N(C)C(=O)OCc3cc(Cl)cc(Cl)c3)CC4)CC2)CC1 (stereo not shown)")
"< 50%"
>>> data_value("CN(c1nc(-c2cc(Cl)cc(Cl)c2)c(C#N)s1)C1CCc2ccc(C3=CCN(CC(=O)N4CC(O)C4)CC3)cc21 (stereo not shown)")
"< 50%"
>>> data_value("CN(CCOc1ccc(F)cc1F)C1CCc2ccc(N3CCN(CC(=O)N4CC(O)C4)CC3)cc21 (stereo not shown)")
"< 50%"
>>> data_value("CN(C(=O)OCc1cc(Cl)cc(Cl)c1)C1CCc2ccc(C3=CCN(CC(=O)N4CC[C@@H](O)C4)CC3)cc21 (stereo partly shown)")
"50 to 80%"
>>> data_value("CN(C(=O)OCc1cc(Cl)cc(Cl)c1)C1CCc2ccc(C3=CCN(C(=O)CN4CCOCC4)CC3)cc21 (stereo not shown)")
"> 80%"

---

Below, each entry is listed with its recorded inhibition at 1 µM.
# assay system: autotaxin (Homo sapiens, UniProt Q13822)
# Construct: purchased Cayman 10803
# assay remarks: Autotaxin inhibitor screening assay (choline release from LPC)
# Format: biochemical
# measurement setup: inhibition of autotaxin enzyme activity at 1 μM compound; 100 μM 14:0 LPC; read-out: Inhibition
assay readout: inhibition at 1 µM

>>> data_value("CN(c1nc(-c2ccc(F)cc2)cs1)C1CCc2ccc(N3CCN(CC(=O)N4CC(O)C4)CC3)cc21 (stereo not shown)")
"< 50%"
>>> data_value("CN(C(=O)OCc1cc(Cl)cc(Cl)c1)C1CCc2ccc(C3=CCN(CC(=O)N(C)S(C)(=O)=O)CC3)cc21 (stereo not shown)")
"50 to 80%"
>>> data_value("CCN(C(=O)OCc1cc(C(F)(F)F)cc(C(F)(F)F)c1)c1noc2ccc(C3=CCN(C(=O)CN4C(=O)CSC4=S)CC3)cc12")
"50 to 80%"
>>> data_value("CN(c1nc(-c2ccc(Cl)cc2)c(C#N)s1)C1CCc2ccc(N3CCN(CC(=O)N4CC(O)C4)CC3)cc21 (stereo not shown)")
"< 50%"
>>> data_value("CN(C(=O)OCc1cc(Cl)cc(Cl)c1)C1CCc2ccc(C3=CCN(C(=O)CN(C)S(C)(=O)=O)CC3)cc21 (stereo not shown)")
"> 80%"
>>> data_value("CN(C(=O)OCc1cc(Cl)cc(Cl)c1)C1CCc2ccc(C3=CCN(C(=O)CN4CCN(S(C)(=O)=O)CC4)CC3)cc21 (stereo not shown)")
"> 80%"
>>> data_value("COc1cc(C2=CCN(C(=O)CN3C(=O)CSC3=S)CC2)cc2c(N(C)C(=O)OCc3cc(C(F)(F)F)cc(C(F)(F)F)c3)coc12")
"> 80%"

Data provenance is patent US20200157088A1.
